Data credit: patent US20230183239A1

Exercise: for every item that follows, state its recorded inhibition at 10 µM.
- TARGET DESC: ENPP1 (Homo sapiens, UniProt P22413)
- Sequence (P22413 whole entry): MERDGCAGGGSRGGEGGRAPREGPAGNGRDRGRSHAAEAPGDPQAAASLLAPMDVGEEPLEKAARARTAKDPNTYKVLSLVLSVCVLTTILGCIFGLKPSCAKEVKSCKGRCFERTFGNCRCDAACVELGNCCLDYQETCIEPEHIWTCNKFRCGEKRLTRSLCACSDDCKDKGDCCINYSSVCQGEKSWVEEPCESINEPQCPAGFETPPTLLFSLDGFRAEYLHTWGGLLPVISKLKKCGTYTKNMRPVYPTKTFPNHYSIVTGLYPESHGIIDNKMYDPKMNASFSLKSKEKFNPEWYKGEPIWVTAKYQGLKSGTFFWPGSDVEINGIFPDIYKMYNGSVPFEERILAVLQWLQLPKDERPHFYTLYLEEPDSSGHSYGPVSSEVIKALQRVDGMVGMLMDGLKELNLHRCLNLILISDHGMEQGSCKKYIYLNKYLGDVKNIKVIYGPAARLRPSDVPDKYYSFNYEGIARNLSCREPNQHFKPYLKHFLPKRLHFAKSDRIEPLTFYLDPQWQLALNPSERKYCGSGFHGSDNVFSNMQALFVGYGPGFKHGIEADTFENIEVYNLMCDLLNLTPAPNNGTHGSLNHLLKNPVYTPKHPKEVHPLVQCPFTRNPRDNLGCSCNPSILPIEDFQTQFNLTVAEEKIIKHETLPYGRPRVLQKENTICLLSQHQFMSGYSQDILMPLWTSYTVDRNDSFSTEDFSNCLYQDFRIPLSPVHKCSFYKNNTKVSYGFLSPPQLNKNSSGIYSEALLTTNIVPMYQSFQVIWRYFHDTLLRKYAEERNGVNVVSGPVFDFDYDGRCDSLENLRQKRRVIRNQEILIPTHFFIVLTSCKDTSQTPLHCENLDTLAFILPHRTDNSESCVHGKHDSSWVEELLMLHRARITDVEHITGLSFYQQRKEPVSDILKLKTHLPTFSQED
- PROTOCOL: ENPP1 enzyme assay with TMP-pNP substrate
- Assay type: biochemical
- Set-up: purchased R&D Systems
- STATED CONDITIONS: read-out: TMP-pNP: % inhibition at 10 uM, 10 uM compound

Worked examples, 3 molecules total:
# CHEMICAL SMILES, RESULT
records = [
    ("Cn1cnc2c(N3CCC(CCNS(N)(=O)=O)CC3)ncnc21", "< 25%"),
    ("COc1cc2nc(N(C)C)nc(N3CCC(CCNS(N)(=O)=O)CC3)c2cc1OC", "50 to 75%"),
    ("COc1cc2nc(-c3cccnc3)nc(N3CCC(CCNS(N)(=O)=O)CC3)c2cc1OC", "50 to 75%"),
]

Could you tell me inhibition at 10 µM for each of these molecules? They are listed below.
1. Cc1cncnc1N1CCC(CCNS(N)(=O)=O)CC1
2. NS(=O)(=O)NCCC1CCN(c2ncnc3nc[nH]c23)CC1
3. NS(=O)(=O)NCCC1CCN(c2ccncn2)CC1

Result:
1: < 25%; 2: < 25%; 3: < 25%

Problem: Supply recorded inhibition at 10 µM for CNc1nc(N2CCC(CCNS(N)(=O)=O)CC2)c2cc(OC)c(OC)cc2n1 here.
Result: > 75%

---

Provide the reported inhibition at 1 µM of each item.
- TARGET DESC: ENPP1 (Homo sapiens, UniProt P22413)
- PROTOCOL: ENPP1 enzyme assay with cGAMP substrate (AMP-Glo)
- Assay type: biochemical
- Parameters: purchased R&D Systems
- STATED CONDITIONS: 1 µM compound; cGAMP substrate; read-out: cGAMP: % Inhibition at 1 µM

Previously resolved entries follow.
# COMPOUND, RESULT
measured = [
    ("CNc1nc(N2CCC(CCNS(N)(=O)=O)CC2)c2cc(OC)c(OC)cc2n1 [Example 2]", "> 75%"),
    ("COc1ccc(C(=O)N2CCC(CCNS(N)(=O)=O)CC2)cc1 [Example 49]", "25 to 50%"),
]

Now consider a different compound.
Problem: Answer with reported inhibition at 1 µM of COc1cc2ncnc(NCc3ccc(NS(N)(=O)=O)cc3)c2cc1OC [Example 34]
Result: > 75%

---

- TARGET DESC: UniProt:P22413
- PROTOCOL: Indirect quantitation of 2',3'-cGAMP hydrolysis (AMP-Glo Assay kit)
- Format: biochemical
- STATED CONDITIONS: cGAMP substrate; Ki from IC50 by Cheng-Prusoff; read-out: ENPP1 Inhibition -cGAMP: Ki
Can you tell me Ki for the items I'm about to list?

Previously resolved entries follow.
# COMPOUND, RESULT
records = [
    ("COc1ccc(C(=O)N2CCC(CCNS(N)(=O)=O)CC2)cc1OC", "> 1000 nM"),
    ("COc1cc2nccc(-c3ccc4c(c3)CN(S(N)(=O)=O)CC4)c2cc1OC", "< 100 nM"),
    ("COc1cc2ncnc(Nc3ccc(N4CCNS4(=O)=O)cc3)c2cc1OC", "> 1000 nM"),
    ("COc1ccc2c(Oc3ccc(S(N)(=O)=O)cc3)c(C(F)(F)F)cnc2c1", "100 to 1000 nM"),
    ("COc1ccc2c(-c3cc4c(cc3F)CCN(S(N)(=O)=O)C4)ccnc2c1", "> 1000 nM"),
    ("COc1cc2nccc(N3CCC(CCNS(N)(=O)=O)CC3)c2cc1F", "< 100 nM"),
]

# batch size: 6; output Ki per entry
1. COc1cc2ncc(C#N)c(-c3ccc(CNS(N)(=O)=O)cc3)c2cc1F
2. COc1cc2nccc(Oc3ccc(NS(N)(=O)=O)cc3)c2cn1
3. COc1cc2nccc(-c3ccc(CNS(N)(=O)=O)cc3)c2cc1OC
4. COc1ccc2c(-c3ccc(CNS(N)(=O)=O)cc3)c(F)cnc2c1
5. COc1cnc2c(-c3ccc(CNS(N)(=O)=O)cc3)ccnc2c1
6. COc1ccc2c(Oc3ccc(C(=O)O)c(OC)c3)ccnc2c1

Result:
< 100 nM
< 100 nM
< 100 nM
< 100 nM
> 1000 nM
100 to 1000 nM
